# TESTED_TARGET: UniProt Q9BY41
# Sequence (Q9BY41 whole entry): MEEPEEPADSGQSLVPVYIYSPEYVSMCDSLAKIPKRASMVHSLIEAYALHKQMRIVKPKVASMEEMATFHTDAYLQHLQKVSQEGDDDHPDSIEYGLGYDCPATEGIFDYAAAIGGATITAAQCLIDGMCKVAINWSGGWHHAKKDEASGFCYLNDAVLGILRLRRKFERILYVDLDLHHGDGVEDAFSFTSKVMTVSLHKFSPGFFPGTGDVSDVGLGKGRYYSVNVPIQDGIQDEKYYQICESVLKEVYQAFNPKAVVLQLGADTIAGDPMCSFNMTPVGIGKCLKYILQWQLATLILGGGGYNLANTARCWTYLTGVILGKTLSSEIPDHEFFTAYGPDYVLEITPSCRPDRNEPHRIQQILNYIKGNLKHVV
# EXPERIMENT_SUMMARY: Inhibition of recombinant human HDAC8 using H2N-Arg- His-Lys(Ac)-Lys(Ac)-AMC as substrate incubated for 90 mins and measured after 20 mins by fluorescence assay
VALUE_KIND: IC50 (nM)

Example cases with answers are listed next.
* O=C(/C=C/C1CCN(Cc2csc3ccccc23)CC1)NO | 1300
* O=C(NO)c1ccc(CNCc2ccsc2)cc1 | 1900
* O=C(/C=C/C1CCN(Cc2ccc(Cl)cc2)CC1)NO | 950

(P) Cn1cc(CN2CCC(/C=C/C(=O)NO)CC2)c2ccccc21
(Q) O=C(NO)c1ccc(CNCc2cccs2)cc1
Query block: Looking at recorded values for IC50, does P or Q come in lower? Bench note: the answer is the label of the chosen record.
Result block: P
(P: 920 nM, Q: 3200 nM)
